# Measured Target: glucocorticoid receptor (GR) (Homo sapiens)
# Sequence (P04150 521-777): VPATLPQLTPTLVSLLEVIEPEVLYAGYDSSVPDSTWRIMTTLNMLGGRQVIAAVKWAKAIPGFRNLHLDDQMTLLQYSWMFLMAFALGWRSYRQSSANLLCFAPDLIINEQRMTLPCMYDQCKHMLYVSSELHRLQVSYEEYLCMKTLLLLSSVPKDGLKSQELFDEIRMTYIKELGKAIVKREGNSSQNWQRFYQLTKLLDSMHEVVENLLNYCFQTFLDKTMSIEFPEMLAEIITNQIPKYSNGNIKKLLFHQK
# Assay Text: Assay for agonist activity on glucocorticoid receptor (luciferase reporter, HEK293 cells transfected with pBIND-GR plasmid)
# Assay type: cell-based
# Assay Conditions: HEK293 cells transfected with pBIND-GR, luciferase signal; read-out: GR agonist EC50
Readout Name: pEC50
# log scale: pEC50 equals minus log10 of the concentration in mol/L

{"columns": ["Molecule", "Measured Target", "Data Value"],
 "data": [
  ["C[C@]12C=CC(=O)C=C1[C@@H](F)C[C@H]1[C@@H]3C[C@H]4OC(c5cnc(CSC6CCOC6=O)nc5)O[C@@]4(C(=O)CO)[C@@]3(C)C[C@H](O)[C@@]12F (some centres unmarked) [Compound 52]", "glucocorticoid receptor (GR) (Homo sapiens)", 8.16]
]}

Prompt line: Look up pEC50 for this molecule: C[C@]12C=CC(=O)C=C1CC[C@H]1[C@@H]3C[C@H]4OC(c5ccc(CC6CCOC6=O)cc5)O[C@@]4(C(=O)CO)[C@@]3(C)C[C@H](O)[C@@]12F (some centres unmarked) [Compound 43]
Response line: 8.11

Prompt line: And what about the molecule C[C@]12C=CC(=O)C=C1[C@@H](F)C[C@H]1[C@@H]3C[C@H]4OC(C5CCN(C(=O)C6COC(=O)C6)CC5)O[C@@]4(C(=O)CO)[C@@]3(C)C[C@H](O)[C@@]12F (some centres unmarked) [Compound 1] ?
Response line: 7.69

Prompt line: And what about the molecule C[C@]12C=CC(=O)C=C1[C@@H](F)C[C@H]1[C@@H]3C[C@H]4OC(c5ccc(CS(=O)(=O)C6CCOC6=O)cc5)O[C@@]4(C(=O)CO)[C@@]3(C)C[C@H](O)[C@@]12F (some centres unmarked) [Compound 58] ?
Response line: 8.44

Prompt line: And what about the molecule C[C@]12C=CC(=O)C=C1CC[C@H]1[C@@H]3C[C@H]4OC(c5ccc(CSC6CCOC6=O)cc5)O[C@@]4(C(=O)CO)[C@@]3(C)C[C@H](O)[C@@]12Cl (some centres unmarked) [Compound 23] ?
Response line: 9.68

----------
# Assay Text: Determination of stability in plasma in vitro, human plasma (LC-MS/MS)
# Format: in vitro ADME
# Assay Conditions: human, human plasma, 1 µM, 37 °C; read-out: Half-life T1/2 (min) in plasma of different species, Human plasma
Readout Name: half-life at 1 µM

Prompt line: Look up half-life at 1 µM for this molecule: C[C@]12C=CC(=O)C=C1[C@@H](F)C[C@H]1[C@@H]3C[C@H]4OC(c5ccc(CSC6CCOC6=O)cc5)O[C@@]4(C(=O)CO)[C@@]3(C)C[C@H](O)[C@@]12F (stereo partly shown) [Compound 8]
Response line: < 30 min

Data credit: patent EP4635969A1
